Here the recorded pIC50 is given for each entry.
- Measurement Target: KAT-6A (Homo sapiens (Human), UniProt Q92794)
- Sequence (Q92794 other isoform, or with tags, fused parts or gaps): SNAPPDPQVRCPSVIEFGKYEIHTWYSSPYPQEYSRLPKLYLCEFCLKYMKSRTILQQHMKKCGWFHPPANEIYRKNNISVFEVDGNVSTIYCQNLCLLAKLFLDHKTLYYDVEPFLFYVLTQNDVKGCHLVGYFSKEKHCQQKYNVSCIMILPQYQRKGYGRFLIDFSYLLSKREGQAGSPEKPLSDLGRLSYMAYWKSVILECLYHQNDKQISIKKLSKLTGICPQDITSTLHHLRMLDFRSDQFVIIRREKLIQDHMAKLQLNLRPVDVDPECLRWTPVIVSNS
- Measurement Description: KAT-6A biochemical inhibition assay (SAMDI mass spectrometry)
pIC50: −log10 of the molar value.

{"columns": ["Molecule", "Measurement Target", "pIC50"],
 "data": [
  ["COc1ccc(CN(C)C(=O)N2CC[C@H](CS(=O)(=O)NNC(=O)c3cc(-c4cn(C)cn4)cc(Cl)c3F)C2)cc1 [Compound I-162]", "KAT-6A (Homo sapiens (Human), UniProt Q92794)", "4.30 to 5.00"],
  ["Cn1cnc(-c2cc(C(=O)NNS(=O)(=O)CC3CCCCC3)c(F)c(Cl)c2C#N)c1 [Compound I-443]", "KAT-6A (Homo sapiens (Human), UniProt Q92794)", "< 4.00"],
  ["Cn1cnc(-c2cc(Cl)c(F)c(C(=O)NNS(=O)(=O)C[C@@H]3CCOC3)c2)c1 [Compound I-372]", "KAT-6A (Homo sapiens (Human), UniProt Q92794)", "4.30 to 5.00"]
]}

Ask: In one line, give reported pIC50 of the entry Cn1cnc(-c2cc(Cl)c(F)c(C(=O)NNS(=O)(=O)CC3CCCNC3)c2)c1 (stereo not shown) [Compound I-7] .
Reply: 4.00 to 4.30

====

- Measurement Target: KAT-8 (Homo sapiens (Human))
- Sequence (Q9H7Z6 other isoform, or with tags, fused parts or gaps): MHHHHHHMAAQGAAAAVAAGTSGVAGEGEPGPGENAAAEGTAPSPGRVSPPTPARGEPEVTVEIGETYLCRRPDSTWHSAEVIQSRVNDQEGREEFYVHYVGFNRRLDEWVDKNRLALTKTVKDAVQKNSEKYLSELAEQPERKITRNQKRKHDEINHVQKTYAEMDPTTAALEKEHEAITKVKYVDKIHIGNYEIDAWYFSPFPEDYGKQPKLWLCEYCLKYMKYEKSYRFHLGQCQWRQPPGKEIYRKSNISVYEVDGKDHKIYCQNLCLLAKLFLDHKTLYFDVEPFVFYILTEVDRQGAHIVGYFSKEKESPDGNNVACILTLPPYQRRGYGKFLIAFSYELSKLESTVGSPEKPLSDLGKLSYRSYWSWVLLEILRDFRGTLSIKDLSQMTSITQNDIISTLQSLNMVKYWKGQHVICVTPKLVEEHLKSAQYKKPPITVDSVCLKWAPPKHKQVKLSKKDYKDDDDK
- Measurement Description: KAT-8 biochemical inhibition assay (SAMDI mass spectrometry)
Readout Label: IC50

Worked examples, 4 compounds total:
{"columns": ["Compound", "Measurement Target", "IC50"],
 "data": [
  ["COCCOc1cccc(S(=O)(=O)NNC(=O)c2cc(-c3cn(C)cn3)cc(Cl)c2F)c1", "KAT-8 (Homo sapiens (Human))", "10 to 50 µM"],
  ["COc1ccc(COc2cccc(S(=O)(=O)NNC(=O)c3cc(-c4cn(C)cn4)cc(Cl)c3F)c2)cc1", "KAT-8 (Homo sapiens (Human))", "> 100 µM"],
  ["CCNC(=O)N(C)[C@H]1CC[C@@H](CS(=O)(=O)NNC(=O)c2cc(-c3cn(C)cn3)cc(Cl)c2F)CC1", "KAT-8 (Homo sapiens (Human))", "10 to 50 µM"],
  ["CNC(=O)NC1CCCC(CS(=O)(=O)NNC(=O)c2cc(-c3cn(C)cn3)cc(Cl)c2F)C1 (stereo not shown)", "KAT-8 (Homo sapiens (Human))", "10 to 50 µM"]
]}

Ask: In one line, give reported IC50 of the entry CN(C(=O)OC(C)(C)C)c1cccc(S(=O)(=O)NNC(=O)c2cc(-c3cn(C)cn3)cc(Cl)c2F)c1 .
Reply: 10 to 50 µM

Ask: In one line, give reported IC50 of the entry Cn1cnc(-c2cc(Cl)c(F)c(C(=O)NNS(=O)(=O)CC3CCC4CCC3N4)c2)c1 (stereo not shown) .
Reply: 10 to 50 µM

Ask: In one line, give reported IC50 of the entry Cc1ccnc(-c2cc(Cl)c(F)c(C(=O)NNS(=O)(=O)CC3CCOCC3)c2)c1 .
Reply: > 100 µM

====

Here the recorded pIC50 is given for each entry.
- Measurement Target: KAT-6A (Homo sapiens (Human), UniProt Q92794)
- Measurement Description: KAT-6A biochemical inhibition assay (SAMDI mass spectrometry)
pIC50: −log10 of the molar value.

Worked examples, 5 compounds total:
{"columns": ["Compound", "pIC50"],
 "data": [
  ["COc1ccc(S(=O)(=O)NNC(=O)c2cc(-c3cn(C)cn3)cc(Cl)c2F)cc1O", "> 5.00"],
  ["Cn1cnc(-c2cc(Cl)c(F)c(C(=O)NNS(=O)(=O)Cc3nn(C)cc3Cl)c2)c1", "> 5.00"],
  ["Cn1cnc(-c2cc(Cl)c(F)c(C(=O)NNS(=O)(=O)C[C@@H]3C[C@H]4CC[C@@H]3O4)c2)c1", "> 5.00"],
  ["Cn1cnc(-c2cc(Cl)c(F)c(C(=O)NNS(=O)(=O)C3CCCN(CC(F)(F)F)C3)c2)c1 (centres unmarked)", "4.30 to 5.00"],
  ["COc1ccc(CNC(=O)N[C@H]2C[C@H](CS(=O)(=O)NNC(=O)c3cc(-c4cn(C)cn4)cc(Cl)c3F)C2)cc1", "> 5.00"]
]}

Ask: In one line, give reported pIC50 of the entry CCNC(=O)N1[C@H]2CC[C@H](CS(=O)(=O)NNC(=O)c3cc(-c4cn(C)cn4)cc(Cl)c3F)[C@@H]1CC2 .
Reply: > 5.00

Ask: In one line, give reported pIC50 of the entry Cn1cnc(-c2cc(Cl)c(F)c(C(=O)NNS(=O)(=O)C[C@H]3CC[C@H](NC(=O)c4ccccn4)CC3)c2)c1 .
Reply: > 5.00

Ask: In one line, give reported pIC50 of the entry Cc1cn(-c2cc(Cl)c(F)c(C(=O)NNS(=O)(=O)CC3CCOCC3)c2)cn1 .
Reply: < 4.00
